# measured-on: EPHB2 (UniProt P29323)
# Sequence (P29323 whole entry, looked up): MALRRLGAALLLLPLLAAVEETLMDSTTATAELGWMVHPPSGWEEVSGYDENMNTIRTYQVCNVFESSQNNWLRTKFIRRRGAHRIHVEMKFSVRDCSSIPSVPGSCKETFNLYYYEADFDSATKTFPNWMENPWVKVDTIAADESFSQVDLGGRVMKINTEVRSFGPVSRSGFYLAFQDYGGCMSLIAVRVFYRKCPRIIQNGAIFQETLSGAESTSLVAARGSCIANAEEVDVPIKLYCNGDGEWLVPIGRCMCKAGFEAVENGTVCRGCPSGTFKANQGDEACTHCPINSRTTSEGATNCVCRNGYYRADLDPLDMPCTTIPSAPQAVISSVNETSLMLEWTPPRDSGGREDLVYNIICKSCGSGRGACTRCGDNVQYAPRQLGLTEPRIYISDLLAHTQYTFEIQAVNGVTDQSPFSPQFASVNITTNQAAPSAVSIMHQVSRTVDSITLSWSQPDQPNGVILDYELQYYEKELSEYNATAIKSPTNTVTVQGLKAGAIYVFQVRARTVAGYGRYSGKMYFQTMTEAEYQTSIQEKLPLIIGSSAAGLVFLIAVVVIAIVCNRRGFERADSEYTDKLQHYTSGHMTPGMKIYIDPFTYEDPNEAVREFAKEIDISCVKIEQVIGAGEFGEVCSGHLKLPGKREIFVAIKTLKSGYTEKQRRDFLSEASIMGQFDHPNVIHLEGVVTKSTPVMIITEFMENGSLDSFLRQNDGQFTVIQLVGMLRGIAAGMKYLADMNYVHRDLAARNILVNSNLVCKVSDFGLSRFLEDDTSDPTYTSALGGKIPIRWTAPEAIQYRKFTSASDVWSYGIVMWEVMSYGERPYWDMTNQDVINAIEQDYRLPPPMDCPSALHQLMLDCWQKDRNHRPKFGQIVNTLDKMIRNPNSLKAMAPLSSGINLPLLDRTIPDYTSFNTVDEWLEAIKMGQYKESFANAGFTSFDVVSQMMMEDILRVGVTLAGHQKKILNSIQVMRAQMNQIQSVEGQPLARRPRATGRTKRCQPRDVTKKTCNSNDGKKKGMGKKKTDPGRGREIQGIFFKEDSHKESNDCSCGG
# experiment-notes: phosphorylation enrichment, bacterial display (enrichment ratio); higher = better substrate or ligand; peptides without Tyr show the background;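 note: 11-residue human phosphosite peptides and single-mutation variants displayed on the E. coli surface, counted by deep sequencing, each peptide's frequency after selection divided by its frequency in the unselected input library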;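 note: frequency after pTyr selection over input frequency; kinase dosed for 20-30% of maximal phosphorylation in three min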
Assign class by phosphorylation enrichment: not lower than 0.6 means T; lower than 0.6 means F.

{"query-sequence": "CTTIHYIFMCN [TP53_Y234_N235I_YF]", "qualitative-label": "F"}
{"query-sequence": "KDHPDYKYQRR [SOX10_Y171_P175R]", "qualitative-label": "F"}
{"query-sequence": "REENGYNTFAS [FGF10_Y161_I156R_YF]", "qualitative-label": "T"}
{"query-sequence": "ITNLLYHLVGW [GBA_Y412_V414L]", "qualitative-label": "T"}

Query: // inclusive: phosphorylation enrichment at least 0.6? input: IGERTYGQVFK [CDK13_Y716_G714R_YF]
Reply: F

Query: Check the entry HKGASYAFRLS [PTPRD_Y891_V892A] : does phosphorylation enrichment equal or exceed 0.6?
Reply: F

Query: In plain terms: is recorded phosphorylation enrichment at least 0.6 for ANVIHYFPTQA [SLC25A4_Y81_R80H] ?
Reply: F

Query: Does the reported phosphorylation enrichment for EAVSIYQFYGQ [CBLC_Y402_H405Y] fall at or above the 0.6 mark?
Reply: T

Query: Given the entry LPSKDYAEVRR [HP_Y272_G276R] , answer whether its phosphorylation enrichment meets or surpasses 0.6.
Reply: T

Query: Is phosphorylation enrichment for YQLENYCNGGG [INS_Y108] at or above 0.6?
Reply: F

Query: Has YGGLRCGYGVL [KRTAP20-2_Y13_Y13C] a recorded phosphorylation enrichment greater than or equal to 0.6?
Reply: F

Query: Quick check: does LIGRRCDDPEV [HSPA9_Y128_Y128C] have phosphorylation enrichment greater than or equal to 0.6?
Reply: T

Query: Would you say RESFKYLPSSL [CXXC1_Y218_F219L_YF] shows phosphorylation enrichment at minimum 0.6?
Reply: F

Query: Assess whether reported phosphorylation enrichment for AIGCEYSEINI [SIGLEC12_Y588_Y586C] sits at 0.6 or higher.
Reply: T

Query: Given the entry ALLTKYSHSSM [DSCC1_Y374] , answer whether its phosphorylation enrichment meets or surpasses 0.6.
Reply: T

Query: Can NIWDSYTTNKV [GNB1_Y85_I80N] be said to have phosphorylation enrichment at or above 0.6?
Reply: F

Query: Decide: phosphorylation enrichment of SGIFQYIIAKF [FOXL2_Y83_YF] >= 0.6?
Reply: F

Query: Does LERFIYNREEL [HLA-DPB1_Y59_F64L_YF] have a reported phosphorylation enrichment of at least 0.6?
Reply: T

Query: Is it the case that DDLEVYLKHLL [SACS_Y3477] has phosphorylation enrichment reaching or exceeding 0.6?
Reply: F

Query: Could you tell me if the measured phosphorylation enrichment of IGSQRYQLGVR [RB1_Y446_K447Q] reaches 0.6 or more?
Reply: F

Query: Decide: is the reported value of phosphorylation enrichment for KINKMYSDRAM equal to or greater than 0.6?
Reply: F

Query: Does the reported phosphorylation enrichment for LNCIYYKDQTG [RS1_Y166_W163C] fall at or above the 0.6 mark?
Reply: T

Query: Say whether RKPDIYGRLAS [MCM4_Y459_E460G] shows phosphorylation enrichment of 0.6 or more.
Reply: F

Query: For this sequence, is measured phosphorylation enrichment 0.6 or higher? SSSGGYGGGFG [KRT19_Y61_A60G_YF]
Reply: F

Query: State whether the measured phosphorylation enrichment reaches 0.6, counting equality as reaching it, for IDAICYFRMEN [NPHS2_Y194_YF]
Reply: T

Query: Entry LLLLFCVVRFC [MPZ_Y177_Y177C_YF] : is its phosphorylation enrichment no less than 0.6?
Reply: F
